- Test Target: HLA-C*06:02
- Assay Summary: IEDB peptide-MHC binding, purified MHC/direct/fluorescence; filed as Kd, often an IC50 or EC50 that approximates it; bounds were set here for any values at or beyond the usual limits of such assays
- Test Settings: source organism: Bacillus anthracis str. A0488
Result Type: Kd (nM)
Write the answer as a number in nM, unit excluded.

Give a short answer stating reported Kd for `LRHSTAHLL` . 13

====

- Test Target: HLA-B*58:01
- Assay Summary: IEDB peptide-MHC binding, purified MHC/direct/fluorescence; filed as Kd, often an IC50 or EC50 that approximates it; bounds were set here for any values at or beyond the usual limits of such assays
- Test Settings: source organism: H9N2 subtype Influenza A virus (A/swine/Korea/S83/2004(H9N2))
Result Type: Kd

Give a short answer stating reported Kd for `FQKDAKVLF` . ≥ 20 µM

====

- Test Target: HLA-B*15:17
- Assay Summary: IEDB peptide-MHC binding, purified MHC/direct/fluorescence; filed as Kd, often an IC50 or EC50 that approximates it; bounds were set here for any values at or beyond the usual limits of such assays
- Test Settings: source organism: Coxiella burnetii
Result Type: Kd (nM)
Write the answer as a number in nM, unit excluded.

// output Kd; input `HSGDSSCAF` ; system HLA-B*15:17 252

====

- Test Target: HLA-A*01:01
- Assay Summary: IEDB peptide-MHC binding, purified MHC/direct/fluorescence; filed as Kd, often an IC50 or EC50 that approximates it; bounds were set here for any values at or beyond the usual limits of such assays
- Test Settings: source organism: Bacillus anthracis
Result Type: Kd

Give a short answer stating reported Kd for `YFENSDLNL` . ≥ 20 µM

====

- Test Target: HLA-B*07:02
- Assay Summary: IEDB peptide-MHC binding, purified MHC/competitive/fluorescence; filed as Kd, often an IC50 or EC50 that approximates it; bounds were set here for any values at or beyond the usual limits of such assays
- Test Settings: source organism: Variola virus
pKd: −log10 of the molar value.
Result Type: pKd

// output pKd; input `IHSDQLSKF` ; system HLA-B*07:02 ≤ 4.70

====

Answer each item with its documented pKd.
- Test Target: HLA-B*08:01
- Assay Summary: IEDB peptide-MHC binding, purified MHC/direct/fluorescence; filed as Kd, often an IC50 or EC50 that approximates it; bounds were set here for any values at or beyond the usual limits of such assays
- Test Settings: source organism: Vibrio parahaemolyticus
pKd: −log10 of the molar value.

Give a short answer stating reported pKd for `NSDPEFNVL` . ≤ 4.70

Give a short answer stating reported pKd for `VMETENALF` . ≤ 4.70

====

- Test Target: HLA-B*07:02
- Assay Summary: IEDB peptide-MHC binding, purified MHC/competitive/radioactivity; filed as Kd, often an IC50 or EC50 that approximates it; bounds were set here for any values at or beyond the usual limits of such assays
- Test Settings: source organism: Homo sapiens
Result Type: Kd (nM)
Write the answer as a number in nM, unit excluded.

Give a short answer stating reported Kd for `GPHVPESAF` . 99

====

- Test Target: HLA-A*31:01
- Assay Summary: IEDB peptide-MHC binding, purified MHC/direct/fluorescence; filed as Kd, often an IC50 or EC50 that approximates it; bounds were set here for any values at or beyond the usual limits of such assays
- Test Settings: source organism: Francisella tularensis subsp. holarctica LVS
Result Type: Kd

Give a short answer stating reported Kd for `KRINSLIKY` . ≥ 20 µM
